The entries below come with measured viability, T/C values attached.
System: 885724-159-R-J1-PDC KRAS PDC multicell spheroid viability;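 also: spheroids exposed to agents for 7 days before readout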
Experiment: Anticancer human tumor 885724-159-R-J1-PDC patient-derived pancreatic adenocarcinoma cell line growth inhibition [KRAS2]
Test parameters: second compound 3.16 µM; first compound 1 µM; active compounds read low

Here are 3 compounds together with their reported answers.
• CC(=O)OC12COC1CC(O)C1(C)C(=O)C(O)C3=C(C)C(OC(=O)C(O)C(NC(=O)OC(C)(C)C)c4ccccc4)CC(O)(C(OC(=O)c4ccccc4)C21)C3(C)C (stereo unspecified) + C=CC(=O)N1CCN(c2nc(OCC3CCCN3C)nc3c2CCN(c2cccc4cccc(C)c24)C3)CC1CC#N = 111%
• CC(C)NCC(C(=O)N1CCN(c2ncnc3c2C(C)CC3O)CC1)c1ccc(Cl)cc1 (stereo unspecified) + CNCc1ccccc1-c1csc(C(C)Nc2nc(C)nc3cc(OC)c(OC)cc23)c1 = 0.7%
• COc1cc(Nc2ncc3c(n2)-c2ccc(Cl)cc2C(c2c(F)cccc2OC)=NC3)ccc1C(=O)O + C=CC(=O)N1CCN(c2nc(OCC3CCCN3C)nc3c2CCN(c2cccc4cccc(C)c24)C3)CC1CC#N = 54.5%

Form: Entry = CC1(C)CCC(CN2CCN(c3ccc(C(=O)NS(=O)(=O)c4ccc(NCC5CCOCC5)c([N+](=O)[O-])c4)c(Oc4cnc5[nH]ccc5c4)c3)CC2)=C(c2ccc(Cl)cc2)C1 + C=CC(=O)N1CCN(c2nc(=O)n(-c3c(C)ccnc3C(C)C)c3nc(-c4c(O)cccc4F)c(F)cc23)C(C)C1 | System = 885724-159-R-J1-PDC KRAS PDC multicell spheroid viability | viability, T/C = ____;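 also: spheroids exposed to agents for 7 days before readout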
114%

Form: Entry = CC1(C)CCC(CN2CCN(c3ccc(C(=O)NS(=O)(=O)c4ccc(NCC5CCOCC5)c([N+](=O)[O-])c4)c(Oc4cnc5[nH]ccc5c4)c3)CC2)=C(c2ccc(Cl)cc2)C1 + CNCc1ccccc1-c1csc(C(C)Nc2nc(C)nc3cc(OC)c(OC)cc23)c1 | System = 885724-159-R-J1-PDC KRAS PDC multicell spheroid viability | viability, T/C = ____;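 also: spheroids exposed to agents for 7 days before readout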
0.79%

Form: Entry = CC(=O)OC12COC1CC(O)C1(C)C(=O)C(O)C3=C(C)C(OC(=O)C(O)C(NC(=O)OC(C)(C)C)c4ccccc4)CC(O)(C(OC(=O)c4ccccc4)C21)C3(C)C (stereo unspecified) + CNCc1ccccc1-c1csc(C(C)Nc2nc(C)nc3cc(OC)c(OC)cc23)c1 | System = 885724-159-R-J1-PDC KRAS PDC multicell spheroid viability | viability, T/C = ____;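 also: spheroids exposed to agents for 7 days before readout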
13%
